Hello, the source for this data is PubChem BioAssay (NCI), in case you need it.

Test system: NCI-H522 lung
assayProcedure: NCI tumour cell line growth inhibition, 48 h
observationType: TGI

[[record]]
compound = "O=C(Nc1cccc(C(F)(F)F)c1)C(=O)C(C(=O)c1ccc(Cl)c(Cl)c1)C1OC(=O)c2ccccc21 (stereo not drawn)"
endpointvalue = "> 100 µM"

[[record]]
compound = "CC(=O)N1C(C(=O)NN2CCOCC2)CSC1c1ccccc1 (stereo not drawn)"
endpointvalue = "> 100 µM"

[[record]]
compound = "O=c1cc(-c2ccc(Cl)cc2)[nH]c2ccccc12"
endpointvalue = "> 100 µM"


---

System: PC-3 prostate
assayProcedure: NCI tumour cell line growth inhibition, 48 h
observationType: TGI

[[record]]
molecularstring = "CN(C)c1ccc(/C=C/C(=O)c2cc(C(C)(C)C)c(O)c(C(C)(C)C)c2)cc1"
endpointvalue = "> 100 µM"

[[record]]
molecularstring = "CNC(=O)c1cc(Oc2ccc3nc(NC(=O)Nc4ccc(CN5CCOCC5)c(C(F)(F)F)c4)sc3c2)ccn1"
endpointvalue = "6.22 µM"

[[record]]
molecularstring = "c1ccc(CN2CCC(=NN3CCCCC3)CC2)cc1"
endpointvalue = "> 100 µM"

[[record]]
molecularstring = "Cc1nnc(C[C@@H]2C=C(c3ccc(Cl)cc3)c3ccccc3-n3c(C)nnc32)o1"
endpointvalue = "> 100 µM"

